- Tested on: SNB-78
- assay-details: NCI tumour cell line growth inhibition, 48 h
Active and inactive are the calls of the source. Rule as the data show it: active = GI50 up to about 1.1 µM and inactive = higher.
reported-endpoint: GI50

Here is how some compounds turned out for GI50.
In [3]: df
Out[3]:
                                   compound  experimental_target  reported_endpoint             measured
0  O=C1NC(=O)C2C1N(Cc1ccccc1)C(=O)N2Cc1ccccc1 (stereo unspecified)               SNB-78               GI50  > 100 µM (inactive)
1              O=c1cccccc1NCCCCNc1cccccc1=O               SNB-78               GI50  > 100 µM (inactive)
2                          O=C(CNc1nncs1)NO               SNB-78               GI50  > 100 µM (inactive)
3  CC(C)NC(=O)O/N=C1\CCC2[C@@H]3CC=C4C[C@@H](OC(=O)NC(C)C)CC[C@]4(C)C3CC[C@]12C (stereo partly specified)               SNB-78               GI50   2.29 µM (inactive)

Query: GI50; subject: CCOC(=O)N1C(=O)C2C3C=CC(C2C1=O)C1C2C(=O)N(C(=O)OCC)C(=O)C2C31 (stereo unspecified)
> 100 µM (inactive)

Param item: O=C1C=CC=CC2CC=C[C@@H](O)C12 (stereo partly specified)
32.4 µM (inactive)

Try this compound too: CC(=O)NNc1nc(C)c(C(=O)/C=C/c2ccc(Cl)cc2)s1
> 100 µM (inactive)

Same question for Cc1nc2c(N)ncnc2o1 please.
> 100 µM (inactive)

What would you report for O=C(CCN(CCO)CCO)Nc1ccc2c(c1)C(=O)c1ccc(NC(=O)CCN(CCO)CCO)cc1C2=O ?
6.62 µM (inactive)

// same read-out, input: CN(C)CC1CCCC(CN(C)C)C1=NOC(=O)c1ccccc1 (stereo unspecified)
> 100 µM (inactive)

Proceed to CC(=O)NC(CCCCNCc1ccccc1)C(=O)NCc1ccccc1 (stereo unspecified)
> 100 µM (inactive)

###

- Tested on: Hs-578T
- assay-details: NCI tumour cell line growth inhibition, 48 h
The source made the active and inactive calls. No stated cut-off is given here; in the data, active = GI50 up to about 1.1 µM and inactive = higher.
One label from this list, please: t = active, f = inactive

# count of solved cases: 2
compound	assigned-class
CNC(=O)N1CCN(C(=O)NC)CCN(C(=O)NC)CC1	f
Cc1ccc(C2NC(=O)c3ccccc3N2)c(C)c1 (stereo not given)	f

Moving on to the next compound.
Short answer needed: outcome of this test for COc1ccc(Nc2nc3cc(C(F)(F)F)ccc3nc2C(=O)O)cc1OC ?
f

###

Measured GI50 of individual entries
- System: CAKI-1
- assay-details: NCI tumour cell line growth inhibition, 48 h
The source made the active and inactive calls. No stated cut-off is given here; in the data, active = GI50 up to about 1.1 µM and inactive = higher.

Solved entries (count: 5):
In [3]: df
Out[3]:
                                   molecule             measured
0  O=C(CC12C3C4C1C1C2C3C41CC(=O)NO)NO (stereo unspecified)   71.8 µM (inactive)
1     COc1ccc2oc(=N)c(C(=O)NCc3ccccc3)cc2c1   34.6 µM (inactive)
2  COc1cc(/C=C/C=C2\CC/C(=C\C=C\c3ccc(O)c(OC)c3)C2=O)ccc1O  > 100 µM (inactive)
3                   O=C(O)CCC(=O)c1ccc[nH]1  > 100 µM (inactive)
4                  N=C(N)NCCN1CC2CCC(CC2)C1  > 100 µM (inactive)

Field: next molecule
Which GI50 value belongs to CC(=O)NNc1nc(C)c(C(=O)/C=C/c2ccc(Cl)cc2)s1 ?
> 100 µM (inactive)

###

- System: SW-620
- assay-details: NCI tumour cell line growth inhibition, 48 h
Activity calls are given as the source filed them. No stated cut-off is given here; in the data, active = GI50 up to about 1.1 µM and inactive = higher.
Valid outcomes are listed here; reply with one: TRUE (active), FALSE (inactive)

Lab log entry: CCOC(=O)NC(=O)c1cn(CCCO)c(=O)[nH]c1=O — outcome as called in the assay?
FALSE

What do we get for Nc1ncnc2c1ncn2[C@@H]1O[C@H](COP(=O)(O)OP(=O)(O)OC[C@H]2O[C@@H](OCCCO)[C@H](O)[C@@H]2O)[C@@H](O)[C@H]1O ?
FALSE

Query CC(=O)/C=C/C=C(\C)CC/C=C(\C)CC(C)C next
FALSE

###

The following molecules are listed with their measured GI50 values.
- Test system: OVCAR-5
- assay-details: NCI tumour cell line growth inhibition, 48 h
Activity calls are given as the source filed them. No stated cut-off is given here; in the data, active = GI50 up to about 1.1 µM and inactive = higher.

Worked examples, 2 molecules total:
>>> df
                                   molecule  reported_endpoint             measured
0           CCC/C(Cl)=N\OC(=O)Nc1ccc(Br)cc1               GI50   13.9 µM (inactive)
1  CC(=O)NNc1nc(C)c(C(=O)/C=C/c2ccc(Cl)cc2)s1               GI50  > 100 µM (inactive)

Could you now consider this next molecule?
Name the recorded GI50 for COc1ccc(-c2c(C#N)c(O)n(C3OC(COC(C)=O)C(OC(C)=O)C(OC(C)=O)C3OC(C)=O)c(=S)c2C#N)cc1 (stereo not drawn) .
> 100 µM (inactive)

###

- Tested on: NCI-H23
- assay-details: NCI tumour cell line growth inhibition, 48 h
The source made the active and inactive calls. No stated cut-off is given here; in the data, active = GI50 up to about 1.1 µM and inactive = higher.
Please reply with one of these outcomes: active, inactive

So what was the verdict on C1=C(CC2=C[P+](c3ccccc3)(c3ccccc3)C=C(c3ccccc3)O2)OC(c2ccccc2)=C[P+]1(c1ccccc1)c1ccccc1 in this test?
active

Then this compound: O=C(CCN(CCO)CCO)Nc1ccc2c(c1)C(=O)c1ccc(NC(=O)CCN(CCO)CCO)cc1C2=O
inactive

Also Cc1cc(=O)[nH]c2cc(NC(=O)C(CCCNC(=N)N)NC(=O)OCc3ccccc3)ccc12 (stereo not drawn) , if possible.
inactive

###

- System: A498
- assay-details: NCI tumour cell line growth inhibition, 48 h
Active and inactive are the calls of the source. No stated cut-off is given here; in the data, active = GI50 up to about 1.1 µM and inactive = higher.
Just give me one of these, please: active, inactive

Worked cases, answers included:
compound	assigned-class
O=C(Cc1ccc(OCc2cccc(Cl)c2)cc1)NO	inactive
Cc1nc2c(nc1C)-c1[nH]c3c(c1C(=O)C2=O)CCCC3=O	inactive
c1ccc(-c2cc(C3CO3)c3ccccc3n2)cc1 (configuration not stated)	inactive
O=C(CCN(CCO)CCO)Nc1ccc2c(c1)C(=O)c1ccc(NC(=O)CCN(CCO)CCO)cc1C2=O	inactive
[O-][n+]1c2cc(CN3CCOCC3)c(CN3CCOCC3)cc2[n+]([O-])c2c(O)cccc21	inactive
Nc1c(Cl)ncnc1NCCCCCCCCCCCCNc1ncnc(Cl)c1N	inactive

Test call, this compound: Cc1cc2nc3c(C#N)c4c(c(-c5ccc(Cl)cc5)n3c2cc1C)CCC4
inactive

And for O=C1/C(=C/c2cccs2)NC(=S)N1CN1CCCCC1 ?
inactive

Would you mind doing CC[C@H]1CN(C)[C@H]2Cc3c([nH]c4ccccc34)C(=O)C[C@H]1C2C(=O)OC (some centres not stated) as well?
inactive

###

Measured GI50 of individual entries
- System: SK-MEL-28
- assay-details: NCI tumour cell line growth inhibition, 48 h
The source made the active and inactive calls. No stated cut-off is given here; in the data, active = GI50 up to about 1.1 µM and inactive = higher.

Before answering, review these 3 worked examples.
                                   compound  experimental_target  reported_endpoint             measured
0  COc1ccc(-c2onc(-c3ccc([N+](=O)[O-])cc3)c2C2=NCCN2)cc1            SK-MEL-28               GI50  > 100 µM (inactive)
1  Cc1nc2c(nc1C)-c1[nH]c3c(c1C(=O)C2=O)CCCC3=O            SK-MEL-28               GI50   1.71 µM (inactive)
2     COc1cc2c(cc1OC)-c1cc3ccccc3c(=O)n1CC2            SK-MEL-28               GI50   27.7 µM (inactive)

Reported GI50, compound C(=N\N=C1NCCN1)/c1ccc2ccccc2c1 : ____
14.3 µM (inactive)

Please do the same for O=C1OC(C2Cc3ccccc3C2=O)c2ccccc21 (stereo unspecified) as well.
> 100 µM (inactive)

Okay, and NC(Cc1c[nH]c2cc([N+](=O)[O-])ccc12)C(=O)O (stereo unspecified) ?
> 100 µM (inactive)

###

Quick list: GI50 per entry.
- Tested on: NCI-H226
- assay-details: NCI tumour cell line growth inhibition, 48 h
Active and inactive are the calls of the source. No stated cut-off is given here; in the data, active = GI50 up to about 1.1 µM and inactive = higher.

In [3]: df
Out[3]:
                                   compound            measured
0  C[C@]12CC[C@H](O)CC1=CC[C@@H]1C2CC[C@]2(C)c3nn(-c4ccc(F)cc4)nc3CC12 (stereo not given in full)  44.2 µM (inactive)

Given the entry CC1CCc2c(c(CC3CC(=O)NC(=O)C3)nn2-c2ccccc2)C1 (stereo not given) , what GI50 was observed with NCI-H226?
> 100 µM (inactive)

Okay, and O=C1/C(=C/c2cccc(Br)c2)CCc2ccccc21 ?
15.2 µM (inactive)

One more compound: O=C(O)CCC(=O)c1ccc[nH]1
64 µM (inactive)

Moving on to the next compound: COc1cc(-c2[o+]c3cc(O)cc(OC4OC(CO)C(O)C(O)C4O)c3cc2OC2OC(CO)C(O)C(O)C2O)cc(OC)c1O (stereo not given)
> 100 µM (inactive)
